tested.on: Platelet-derived growth factor receptor beta (Homo sapiens)
experimental.details: Inhibition of PDGFRbeta at 10 uM by HTRF assay relative to control
reported.endpoint: inhibition (%)

Solved entries:
**Query** Give the value of inhibition reported for the following: CN(C)CC(C)(C)CNC(=O)c1cccc(Nc2nccc(Nc3ccc4ncsc4c3)n2)c1
**Result** 99

**Query** Give the value of inhibition reported for the following: CN(C)CC(C)(C)CNC(=O)[C@@H]1CCCN1c1nccc(Nc2ccccc2)n1
**Result** 5

[A] CN(C)CC(C)(C)CNC(=O)C1CCN(c2cc(N3CCOCC3)nc(N)n2)CC1
[B] COc1cccc(Nc2cc(Nc3cccc(C(=O)N(C)CCc4ccccn4)c3)nc(N)n2)c1
**Query** Select the item with the higher value of inhibition from the options A and B listed. // caller expects the label of the chosen entry
**Result** A

[I] COC[C@@H]1CCCN1C(=O)C1CCCN1c1cc(Nc2cccc(Br)c2)ncn1 (some centres undefined)
[II] Cc1cccc(N(C)c2cc(Nc3cccc(C(=O)N(CC(C)C)CC(C)C)c3)ncn2)c1
[III] COC(=O)C(CO)NC(=O)[C@@H]1CCCN1c1nccc(Oc2cccc(C)c2)n1 (some centres undefined)
**Query** Put the items in sequence by inhibition, from largest down. Labels, requested order.
**Result** II, I, III
